Attribution: patent US20090018106A1

experiment: Single intravenous dose escalation of P5P, plasma pharmacokinetics (Examples Two and Three); assay type: in vivo, human; conditions: Group 3, P5P 10 mg/kg single iv; plasma PAL; mean
experimental_readout: Kel (h⁻¹)
Number only, in h⁻¹; omit the unit.

INPUT: Tell me the measured Kel of Cc1ncc(CO)c(C=O)c1O , please.
OUTPUT: 0.167

* * *

assay: clinical; design: species or system human; details: human, in vivo, iv, 10 mg/kg, Cmax
Some compounds, each annotated with its measured Cmax.

Recorded results for 2 compounds are shown here.
Cc1ncc(CO)c(C=O)c1O [PAL, pyridoxal] : 7630 ng/mL
Cc1ncc(CO)c(C(=O)O)c1O [PA, 4-pyridoxic acid] : 4360 ng/mL

Turning to the following compound.
INPUT: Given the compound Cc1ncc(COP(=O)(O)O)c(C=O)c1O [P5P, Pyridoxal 5′-phosphate, reference compound] , what is its reported Cmax?
OUTPUT: 191000 ng/mL
